Biological target: CCL4L1_HUMAN
Test: BLI
Endpoint: log10 of Kd (log10 of the value in nM)
Give log10 of Kd, with Kd taken in nM.

Examples from the recorded data:
P1183_AMBTR (other) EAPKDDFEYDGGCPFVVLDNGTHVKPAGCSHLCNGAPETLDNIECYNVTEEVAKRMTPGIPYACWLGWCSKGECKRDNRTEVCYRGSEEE	1.68
P1243_AMBAM (other) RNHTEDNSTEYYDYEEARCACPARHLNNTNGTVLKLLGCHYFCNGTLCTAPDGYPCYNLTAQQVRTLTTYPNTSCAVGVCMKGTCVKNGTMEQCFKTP	1.55
P985_AMBPA (other) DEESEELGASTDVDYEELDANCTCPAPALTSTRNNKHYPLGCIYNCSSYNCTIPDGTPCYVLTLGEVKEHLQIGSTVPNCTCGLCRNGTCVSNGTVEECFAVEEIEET	1.31

Incoming: // returns reported log10 of Kd for input P983_AMBPA (other) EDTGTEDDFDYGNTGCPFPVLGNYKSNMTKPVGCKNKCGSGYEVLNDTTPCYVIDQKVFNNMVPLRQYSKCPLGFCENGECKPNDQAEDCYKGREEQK
Outgoing: 0.46

Incoming: // returns reported log10 of Kd for input P546_AMBCA (other) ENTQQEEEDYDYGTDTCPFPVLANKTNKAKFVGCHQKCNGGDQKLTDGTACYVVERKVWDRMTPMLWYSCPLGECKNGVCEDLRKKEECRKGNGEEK
Outgoing: 0.95

Incoming: // returns reported log10 of Kd for input P991_AMBCA (other) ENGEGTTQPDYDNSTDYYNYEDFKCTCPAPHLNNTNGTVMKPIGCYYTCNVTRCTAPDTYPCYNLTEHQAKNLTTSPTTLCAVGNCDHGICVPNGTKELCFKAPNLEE
Outgoing: -0.08
